Overview of recorded yeast fitness for various variants
B1: tRNA (parent)
chain: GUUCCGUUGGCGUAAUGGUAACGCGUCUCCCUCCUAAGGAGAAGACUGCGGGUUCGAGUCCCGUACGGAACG

variants of: B1; test: yeast fitness relative to wild type (ratio to wild type); higher = fitter; tRNA-Arg(CCU), competitive growth, 37 C, YPD
Fewer inactive variants are shown than the library holds.

residueChange	qualifierOperator	yeast fitness
A65U A70U	=	1.11
U8A C24G	≤	0.5
U7A G9C U13C G58C A65C A69G	≤	0.5
C4G C30U	=	0.852
U19C A43U C62A	=	0.628
G18C A43C	=	0.719
C24G U64A A70C	≤	0.5
G12A U13G C61U G67C	=	0.678
C11U C30A U35A G38A C61G	≤	0.5
C4A C5G A20C A40U A65C	≤	0.5
A15G A40G	=	0.758
U19G G56A C60U	=	0.69
U16A C29G C30U A40U	≤	0.5
C29A A42U U64C A69C	≤	0.5
C4U A15C C30G A69C A70G	≤	0.5
A20C U59C	=	0.749
U3A C27A C30G G39A	≤	0.5
C11G C60G	=	0.713
C60A C61U G63C C66U	≤	0.5
C5G G23C C33U G39A A43C	≤	0.5
G17C G63C C66U	≤	0.5
A15C A36G G56A C61U	≤	0.5
